Tested on: HOP-92
assay: NCI tumour cell line growth inhibition, 48 h
The source made the active and inactive calls. No stated cut-off is given here; in the data, active = GI50 up to about 1.1 µM and inactive = higher.
valueKind: GI50

# example entries with known answers
>>> recordedmeasurement("OC(CCN1CCN(CCOC(c2ccc(F)cc2)c2ccc(F)cc2)CC1)c1ccc(Br)cc1 (centres undefined)")
"4.37 µM (inactive)"
>>> recordedmeasurement("OC(c1cc2ccccc2[nH]1)C1(c2cccnc2)SCCCS1 (centres undefined)")
"> 100 µM (inactive)"
>>> recordedmeasurement("O=C(Nc1ccc(Cl)c(Cl)c1)C(=O)C(C1OC(=O)c2ccccc21)[N+](=O)[O-] (centres undefined)")
"81.7 µM (inactive)"

Asked: GET /values?readout=GI50&item= COc1cc(CNC(=S)CCCCCCCCCCC(C)C)ccc1O
Given back: 24.2 µM (inactive)

----------
Test system: NCI-H226
assay: NCI tumour cell line growth inhibition, 48 h
Active and inactive are the calls of the source. Rule as the data show it: active = GI50 up to about 1.1 µM and inactive = higher.
valueKind: GI50

# example entries with known answers
>>> recordedmeasurement("NCCCCCNOCCCN")
"> 100 µM (inactive)"
>>> recordedmeasurement("O=C1NC(N2CCOCC2)=N/C1=C\\c1ccc(O)cc1")
"> 100 µM (inactive)"
>>> recordedmeasurement("COc1ccc(-c2cc(=O)c3c(O)cc(C)cc3o2)cc1OC")
"> 100 µM (inactive)"
>>> recordedmeasurement("C[P+](c1ccccc1)(c1ccc(Cl)cc1)c1ccc(Cl)cc1")
"24.3 µM (inactive)"
>>> recordedmeasurement("CC(C)(Oc1ccc(/C=C/C(=O)c2ccc(Cl)cc2)cc1)C(=O)Nc1c(Cl)cccc1Cl")
"25.5 µM (inactive)"

Asked: GET /values?readout=GI50&item= Sc1nnc(CCCCCCCCc2nnc(S)o2)o1
Given back: > 100 µM (inactive)

----------
Tested on: U-251
assay: NCI tumour cell line growth inhibition, 48 h
Active and inactive are the calls of the source. Rule as the data show it: active = GI50 up to about 1.1 µM and inactive = higher.
valueKind: GI50

# example entries with known answers
>>> recordedmeasurement("COC(=O)[C@]12CCC(=O)N1[C@H](C(=O)O)Cc1c2[nH]c2ccccc12")
"> 100 µM (inactive)"
>>> recordedmeasurement("O=c1[nH]c(=O)n(COCc2ccccc2)c2ccccc12")
"52.1 µM (inactive)"
>>> recordedmeasurement("CC(C)(C)OC(=O)NCC(CNC(=O)OC(C)(C)C)c1nc(C(N)=O)cs1")
"> 100 µM (inactive)"
>>> recordedmeasurement("N=C(N)N/N=C/c1c[nH]c2ccccc12")
"> 100 µM (inactive)"

Asked: # query: GI50 | item COc1ccc(NC(C)=O)c(C(O)CCNC(C)=O)c1 (stereo unspecified) | system: U-251
Given back: > 100 µM (inactive)

Asked: # repeat for CC(C)OP(=O)(NC(=S)c1ccccc1)OC(C)C
Given back: > 100 µM (inactive)

----------
System: HCC 2998
assay: NCI tumour cell line growth inhibition, 48 h
The source made the active and inactive calls. Rule as the data show it: active = GI50 up to about 1.1 µM and inactive = higher.
Hi! Could you answer with just one of these? true = active, false = inactive

>>> labelclass("O=c1c2ccccc2c2ccccc2c(=O)n1-c1cc2c3ccccc3ccc2c2ccccc12")
"false"
>>> labelclass("COc1ccc2c(c1)CC1NC2Cc2ccccc21 (centres undefined)")
"false"
>>> labelclass("COC(=O)c1c(O)ccc2c1c1cc3ccccc3cc1n2Cc1cc(OC)cc(OC)c1")
"false"
>>> labelclass("O=C1CC(c2ccco2)C2(C(=O)NC(=O)NC2=O)C(c2ccco2)C1 (centres undefined)")
"false"
>>> labelclass("CN1c2ccccc2C(=O)NC12CCN(Cc1ccccc1)CC2")
"false"

Asked: What was the test verdict on CC1(C)C2C=C(CCN3CCOCC3)CC1C2 (centres undefined) ?
Given back: false

Asked: # repeat for O=c1c2cc(Br)ccc2n(C2OC(CO)C(O)C(O)C2O)c(=S)n1-c1ccccc1 (centres undefined)
Given back: false

Asked: # repeat for N#CCc1nc(O)c2ccccc2n1
Given back: false

Asked: # repeat for COC(=O)[C@]12CCC(=O)N1[C@H](C(=O)O)Cc1c2[nH]c2ccccc12
Given back: false

Asked: # repeat for CC(=O)NC(CCCN(Cc1ccccc1)C(=O)NCCCl)C(=O)NCc1ccccc1 (centres undefined)
Given back: false
